Origin of values: paper PMC6344896

biological target: HuR RRM3 (human, UniProt Q15717 243-326); test: ITC; ITC: 50 mM sodium phosphate pH 7.0, 200 mM NaCl, 2 mM beta-mercaptoethanol, 298 K; NMR: 20 mM sodium phosphate pH 7.0, 200 mM NaCl, 5 mM DTT, 1 mM EDTA, 298 K; conditions: protein: recombinant; tags: untagged (His6-GST cleaved with TEV)
Sequence (Q15717 243-326): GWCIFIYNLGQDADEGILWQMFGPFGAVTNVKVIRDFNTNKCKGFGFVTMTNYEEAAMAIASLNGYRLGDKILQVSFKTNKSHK
reportedMetric: pKd
Please note pKd is a logarithmic value: minus log10 of concentration in mol/L. Answer with that number alone.

## Task Looking for the measured pKd of UAUUUA (ssRNA) [AU6tnf] , can you help?
## Result 3.81
